The reported measurements were obtained from ChEMBL document CHEMBL3421565.

- Tested on: Hepatitis C virus
- procedure-text: Antiviral activity against HCV genotype 2b chimera with HCV genotype 1b Con1 backbone containing HCV genotype 2b NS5B gene infected in human HuH7 cells assessed as reduction in replicon RNA levels incubated for 5 days by RT-PCR assay
- Assay type: functional, cell-based, Hepacivirus hominis
- condition-parameters: Huh-7, 120 h
quantity-name: EC50
Express your answer as a number followed by its unit.

Q) Recorded EC50 for CCOC(=O)CCc1ccccc1O[P@@](=O)(N[C@@H](C)C(=O)OCC)OC[C@H]1O[C@@H](n2cnc3c(N)nc(N)nc32)[C@](C)(O)[C@H]1O , please?
A) 290 nM
